assay_target: PDE4D (phosphodiesterase-4D) (Homo sapiens)
Sequence (Q08499 whole entry): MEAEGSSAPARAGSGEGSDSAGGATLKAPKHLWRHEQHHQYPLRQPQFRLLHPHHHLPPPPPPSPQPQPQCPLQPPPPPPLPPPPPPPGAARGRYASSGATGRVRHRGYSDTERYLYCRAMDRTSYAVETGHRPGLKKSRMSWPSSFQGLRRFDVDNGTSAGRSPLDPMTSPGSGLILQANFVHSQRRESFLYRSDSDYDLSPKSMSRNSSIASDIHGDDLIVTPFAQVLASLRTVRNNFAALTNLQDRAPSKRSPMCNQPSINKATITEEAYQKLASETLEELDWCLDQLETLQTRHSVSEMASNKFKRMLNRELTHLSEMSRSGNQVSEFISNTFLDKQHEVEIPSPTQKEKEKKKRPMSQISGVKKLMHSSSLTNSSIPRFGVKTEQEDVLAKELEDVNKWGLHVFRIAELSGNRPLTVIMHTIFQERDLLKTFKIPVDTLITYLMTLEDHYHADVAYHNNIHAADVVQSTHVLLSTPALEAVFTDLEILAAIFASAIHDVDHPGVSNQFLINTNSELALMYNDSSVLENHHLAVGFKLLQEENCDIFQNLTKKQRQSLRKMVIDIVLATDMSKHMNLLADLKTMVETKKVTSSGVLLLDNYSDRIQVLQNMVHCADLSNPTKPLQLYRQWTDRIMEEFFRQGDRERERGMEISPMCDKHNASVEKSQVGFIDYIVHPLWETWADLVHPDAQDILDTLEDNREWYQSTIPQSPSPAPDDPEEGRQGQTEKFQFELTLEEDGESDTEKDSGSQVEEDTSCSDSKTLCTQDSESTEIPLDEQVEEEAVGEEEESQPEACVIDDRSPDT
assay_overview: in vitro PDE inhibition assay, % inhibition at […]
Type: biochemical
test_settings: read-out: Inhibition (%) of Compounds at 50 μM / PDE4D
quantity_measured: inhibition at 50 µM (%)

>>> number("CC(C)=CC(=O)C/C(C)=C\\CC/C(C)=C/CC/C(C)=C/Cn1cnc2c1c(=O)ncn2C [compound 2, malonganenone M]")
72
>>> number("CNC(=O)c1c(N(C)C=O)ncn1C/C=C(\\C)CC/C=C(\\C)CC/C=C(/C)CC(=O)C=C(C)C [compound 5, malonganenone P]")
75
>>> number("CC(C)=CC(=O)/C=C(\\C)CCC/C(C)=C/CC/C(C)=C/Cn1cnc2c1c(=O)ncn2C [compound 3, malonganenone N]")
81
>>> number("CNC(=O)c1c(N(C)C=O)ncn1C/C=C(\\C)CC/C=C(\\C)CC/C=C(\\C)CC(=O)C=C(C)C [compound 4, malonganenone O]")
79
